# system tested: UniProt P09917
# procedure summary: Stimulation of isolated PMN (neutrophils) for 5-LO products
# Format: cell-based
# condition info: ranges indicate confidence interval, read-out: PMN dose-response
label 1 if IC50 is below 900 nM. label 0 if not; exact matches included in label 0.

Ask | Please state whether IC50 is below 900 nM for O=C(CCc1ccc(O)c(O)c1)OCCCCc1ccccc1 [Compound 1]
Reply | label 1

Ask | Please state whether IC50 is below 900 nM for O=C(CCc1ccc(O)c(O)c1)OCCCCCCc1ccccc1 [Compound 3]
Reply | label 1

Ask | Please state whether IC50 is below 900 nM for O=C(C=Cc1ccc(O)c(O)c1)OCC=Cc1ccccc1 (stereo in doubt) [Compound 4]
Reply | label 1

Ask | Please state whether IC50 is below 900 nM for O=C(CCc1ccc(O)c(O)c1)OCCc1ccccc1 [Compound 32]
Reply | label 0

###

# system tested: 5-lipoxygenase (Homo sapiens (Human), UniProt P09917)
# Sequence (P09917 whole entry): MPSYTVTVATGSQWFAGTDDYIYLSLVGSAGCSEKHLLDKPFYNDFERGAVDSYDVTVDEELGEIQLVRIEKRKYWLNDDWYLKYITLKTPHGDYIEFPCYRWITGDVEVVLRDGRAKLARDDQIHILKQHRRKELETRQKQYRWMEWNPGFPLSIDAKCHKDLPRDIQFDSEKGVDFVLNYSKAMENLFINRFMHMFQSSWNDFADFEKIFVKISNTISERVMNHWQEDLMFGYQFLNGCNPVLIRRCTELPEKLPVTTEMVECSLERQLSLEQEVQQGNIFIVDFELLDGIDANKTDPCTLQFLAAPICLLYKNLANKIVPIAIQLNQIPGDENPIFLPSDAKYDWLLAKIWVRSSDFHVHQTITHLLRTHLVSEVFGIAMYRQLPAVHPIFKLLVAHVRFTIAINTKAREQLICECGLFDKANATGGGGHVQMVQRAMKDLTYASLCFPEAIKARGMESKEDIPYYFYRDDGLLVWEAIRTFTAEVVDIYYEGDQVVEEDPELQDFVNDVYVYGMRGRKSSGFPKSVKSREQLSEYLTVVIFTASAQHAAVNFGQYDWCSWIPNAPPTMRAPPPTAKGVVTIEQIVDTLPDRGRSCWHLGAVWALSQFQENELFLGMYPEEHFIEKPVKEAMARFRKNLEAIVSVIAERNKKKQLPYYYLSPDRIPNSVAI
# procedure summary: Stimulation of isolated PMN (neutrophils) for 5-LO products
# Type: cell-based
# condition info: ranges indicate confidence interval, read-out: PMN dose-response
Please provide measured IC50 for the entries that follow.
Answer in nM, number only, no unit symbol.

5-lipoxygenase (Homo sapiens (Human), UniProt P09917) IC50 of O=C(/C=C/c1ccc(O)c(O)c1)CCc1ccccc1 [Compound 59] is 840

5-lipoxygenase (Homo sapiens (Human), UniProt P09917) IC50 of O=C(OCCc1ccccc1)c1cc(O)c(O)c(O)c1 [Compound 38, phenethyl 3,4,5-trihydroxybenzoate] is 790

5-lipoxygenase (Homo sapiens (Human), UniProt P09917) IC50 of O=C(/C=C/c1ccc(O)c(O)c1)OCC(c1ccccc1)c1ccccc1 [Compound 27] is 720

5-lipoxygenase (Homo sapiens (Human), UniProt P09917) IC50 of O=C(/C=C/c1ccc(O)c(O)c1)OCCCCc1ccccc1 [Compound 39] is 600

5-lipoxygenase (Homo sapiens (Human), UniProt P09917) IC50 of O=C(/C=C/c1ccc(O)c(O)c1)NCCCc1ccccc1 [Compound 55] is 1600

###

# system tested: 5-lipoxygenase (Homo sapiens (Human), UniProt P09917)
# procedure summary: Stimulation of isolated PMN (neutrophils) for 5-LO products
# Assay type: cell-based
# condition info: ranges indicate confidence interval, read-out: PMN dose-response
measured endpoint: pIC50
Keep in mind that pIC50 stands for -log10 of concentration in molar terms.

5-lipoxygenase (Homo sapiens (Human), UniProt P09917) pIC50 of O=C(CCc1ccc(O)c(O)c1)OCCCc1ccccc1 [Compound 33] is 6.05

5-lipoxygenase (Homo sapiens (Human), UniProt P09917) pIC50 of C=C(C)CCOC(=O)/C=C/c1ccc(O)c(O)c1 [Compound 17] is 6.07

5-lipoxygenase (Homo sapiens (Human), UniProt P09917) pIC50 of O=C(/C=C/c1ccc(O)c(O)c1)OCCCCCc1ccccc1 [Compound 40] is 6.28

5-lipoxygenase (Homo sapiens (Human), UniProt P09917) pIC50 of COc1cc(/C=C/C(=O)OCCc2ccccc2)cc(OC)c1O [Compound 45] is 6.52

###

Please provide measured remaining activity at 1 µM for the entries that follow.
# system tested: COX-2 (Homo sapiens (Human), UniProt P35354)
# Sequence (P35354 18-604): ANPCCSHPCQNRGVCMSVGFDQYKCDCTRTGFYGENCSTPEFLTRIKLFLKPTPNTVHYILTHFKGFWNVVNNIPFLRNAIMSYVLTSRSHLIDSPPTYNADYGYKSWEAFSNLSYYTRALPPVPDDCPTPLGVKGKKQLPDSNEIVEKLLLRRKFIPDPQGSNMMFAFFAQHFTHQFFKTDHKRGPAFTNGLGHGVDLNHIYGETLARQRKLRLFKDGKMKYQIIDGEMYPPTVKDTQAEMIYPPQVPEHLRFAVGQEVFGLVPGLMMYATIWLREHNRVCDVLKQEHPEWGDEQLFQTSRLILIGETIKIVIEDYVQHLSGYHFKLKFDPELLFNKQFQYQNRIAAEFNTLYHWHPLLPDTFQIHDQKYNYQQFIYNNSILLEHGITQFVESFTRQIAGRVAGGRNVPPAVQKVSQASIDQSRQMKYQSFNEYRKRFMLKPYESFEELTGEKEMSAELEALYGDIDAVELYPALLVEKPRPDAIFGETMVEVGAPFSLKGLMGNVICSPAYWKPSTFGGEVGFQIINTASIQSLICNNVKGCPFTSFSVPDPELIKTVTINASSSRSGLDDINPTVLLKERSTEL
# procedure summary: COX-2 activity, products from LPS-primed human neutrophils
# Type: cell-based
# condition info: 100% no inhibition, 0% complete inhibition, read-out: % of control COX-2 activity, n = 1
Answer in %, number only, no unit symbol.

Entry O=C(CCc1ccc(O)c(O)c1)OCCCc1ccccc1 [Compound 33] , remaining activity at 1 µM reported as 7.6

Entry O=C(CCc1ccc(O)c(O)c1)OCCc1ccccc1 [Compound 32] , remaining activity at 1 µM reported as 34.3

Entry O=C(/C=C/c1ccc(O)c(O)c1)OCCCCc1ccccc1 [Compound 39] , remaining activity at 1 µM reported as 62.9

Entry O=C(/C=C/c1ccc(O)c(O)c1)OCCCCCc1ccccc1 [Compound 40] , remaining activity at 1 µM reported as 37.8

Entry O=C(/C=C/c1ccc(O)c(O)c1)OCCCc1ccccc1 [Compound 25] , remaining activity at 1 µM reported as 34.9

Entry O=C(/C=C/c1ccc(O)c(O)c1)NCCCc1ccccc1 [Compound 55] , remaining activity at 1 µM reported as 103

###

Please provide measured remaining activity at 1 µM for the entries that follow.
# system tested: COX-2 (Homo sapiens (Human), UniProt P35354)
# procedure summary: COX-2 activity, products from LPS-primed human neutrophils
# Assay type: cell-based
# condition info: 100% no inhibition, 0% complete inhibition, read-out: Avg % of control
Answer in %, number only, no unit symbol.

Entry O=C(/C=C/c1ccc(O)c(O)c1)NCCCc1ccccc1 [Compound 55] , remaining activity at 1 µM reported as 102

Entry O=C(CCc1ccc(O)c(O)c1)OCCc1ccccc1 [Compound 32] , remaining activity at 1 µM reported as 51.6

Entry O=C(/C=C/c1ccc(O)c(O)c1)OCCCCc1ccccc1 [Compound 39] , remaining activity at 1 µM reported as 76.6

Entry O=C(/C=C/c1ccc(O)c(O)c1)OCCCc1ccccc1 [Compound 25] , remaining activity at 1 µM reported as 58.1

Entry O=C(CCc1ccc(O)c(O)c1)OCCCc1ccccc1 [Compound 33] , remaining activity at 1 µM reported as 26.4

Entry O=C(/C=C/c1ccc(O)c(O)c1)OCCCCCc1ccccc1 [Compound 40] , remaining activity at 1 µM reported as 62.1
